Molecular target: UniProt:Q8TDC3
Sequence (Q8TDC3 1-778): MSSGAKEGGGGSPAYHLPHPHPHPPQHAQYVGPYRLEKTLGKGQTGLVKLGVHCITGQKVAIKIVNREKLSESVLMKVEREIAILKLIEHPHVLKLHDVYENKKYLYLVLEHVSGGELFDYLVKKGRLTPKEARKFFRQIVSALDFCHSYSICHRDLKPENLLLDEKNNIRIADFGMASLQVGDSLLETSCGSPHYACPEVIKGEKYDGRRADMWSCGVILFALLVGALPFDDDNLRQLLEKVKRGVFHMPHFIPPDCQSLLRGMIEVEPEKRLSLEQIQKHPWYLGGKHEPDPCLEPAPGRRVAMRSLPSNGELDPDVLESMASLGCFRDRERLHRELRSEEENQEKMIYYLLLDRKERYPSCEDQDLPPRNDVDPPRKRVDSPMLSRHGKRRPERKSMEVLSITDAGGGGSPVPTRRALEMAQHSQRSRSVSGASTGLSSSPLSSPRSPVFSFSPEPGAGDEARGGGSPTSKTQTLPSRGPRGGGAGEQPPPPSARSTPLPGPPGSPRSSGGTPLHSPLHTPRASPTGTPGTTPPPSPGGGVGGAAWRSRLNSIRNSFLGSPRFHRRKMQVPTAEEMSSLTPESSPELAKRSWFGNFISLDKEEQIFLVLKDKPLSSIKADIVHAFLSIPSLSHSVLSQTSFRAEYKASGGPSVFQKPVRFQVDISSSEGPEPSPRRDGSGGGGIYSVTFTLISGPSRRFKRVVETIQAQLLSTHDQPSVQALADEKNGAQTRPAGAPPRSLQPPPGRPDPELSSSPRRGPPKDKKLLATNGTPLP
Assay: Kinase profiling BRSK1
Type: biochemical
Conditions: 100 micromolar inhibitor concentration; 100 is no change; read-out: residual kinase activity, BRSK1
assay-readout: remaining activity at 100 µM (%)
Field: numeric (%). Do not append units.

CC(=O)Nc1nc2cc(F)ccc2s1 78
CC(=O)Nc1nc2ccc(C#N)cc2s1 62
COc1ccc2sc(NC(C)=O)nc2c1 85
CC(=O)Nc1nc2ccc(O)cc2s1 16
CC(=O)Nc1nc2cc(C(F)(F)F)ccc2s1 83

Incoming: # get_value(readout= remaining activity at 100 µM, system= UniProt:Q8TDC3) for CC(=O)Nc1nc2ccc(C(F)(F)F)cc2s1
Outgoing: 83

---

Target: CAMK1 (Homo sapiens, UniProt Q14012)
Sequence (Q14012 whole entry, species assumed): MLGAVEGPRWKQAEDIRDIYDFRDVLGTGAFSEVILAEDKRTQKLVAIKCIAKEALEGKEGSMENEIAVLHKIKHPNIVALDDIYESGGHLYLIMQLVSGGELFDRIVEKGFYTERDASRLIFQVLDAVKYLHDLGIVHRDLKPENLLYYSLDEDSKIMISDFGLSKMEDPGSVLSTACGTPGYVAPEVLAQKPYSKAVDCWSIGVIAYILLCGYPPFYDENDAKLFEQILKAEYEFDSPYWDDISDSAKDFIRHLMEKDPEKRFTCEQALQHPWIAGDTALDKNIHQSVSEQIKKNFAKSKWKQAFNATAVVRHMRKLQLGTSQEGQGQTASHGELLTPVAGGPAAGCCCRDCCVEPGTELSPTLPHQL
Assay: Kinase profiling CAMK1
Format: biochemical
Settings: 100 micromolar inhibitor concentration; 100 is no change
Text: Any value less that 25 is considered to be highly significant inhibition.
Property: residual kinase activity, CAMK1; scope: individual compounds
Just the number, please, no unit after it.

Below, 7 compounds whose answers are already recorded.
O=C(Nc1nc2ccc(F)cc2s1)c1ccccc1 97
CC(=O)Nc1nc2ccccc2s1 99
O=C(Nc1nc2ccc(O)cc2s1)c1ccncc1 68
O=C(Nc1nc2ccc(O)cc2s1)c1ccccc1 22
COc1ccc2nc(NC(=O)c3ccccc3)sc2c1 68
COC(=O)c1cccc(C(=O)Nc2nc3cc(OC)ccc3s2)c1 96
COc1ccc2sc(NC(=O)c3cccc(C(N)=O)c3)nc2c1 102

Incoming: Which residual kinase activity, CAMK1 value belongs to COC(=O)c1cccc(C(=O)Nc2nc3ccc(F)cc3s2)c1 ?
Outgoing: 99
